# tgt: HCV NS5B (Hepatitis C virus genotype 1b)
# Construct: The protein was expressed with an 18 amino acid C-terminal truncation to enhance the solubility; made in house; host or cells: E. coli BL21 (DE3), pET21a
# Sequence (Q9WMX2 2420-2992): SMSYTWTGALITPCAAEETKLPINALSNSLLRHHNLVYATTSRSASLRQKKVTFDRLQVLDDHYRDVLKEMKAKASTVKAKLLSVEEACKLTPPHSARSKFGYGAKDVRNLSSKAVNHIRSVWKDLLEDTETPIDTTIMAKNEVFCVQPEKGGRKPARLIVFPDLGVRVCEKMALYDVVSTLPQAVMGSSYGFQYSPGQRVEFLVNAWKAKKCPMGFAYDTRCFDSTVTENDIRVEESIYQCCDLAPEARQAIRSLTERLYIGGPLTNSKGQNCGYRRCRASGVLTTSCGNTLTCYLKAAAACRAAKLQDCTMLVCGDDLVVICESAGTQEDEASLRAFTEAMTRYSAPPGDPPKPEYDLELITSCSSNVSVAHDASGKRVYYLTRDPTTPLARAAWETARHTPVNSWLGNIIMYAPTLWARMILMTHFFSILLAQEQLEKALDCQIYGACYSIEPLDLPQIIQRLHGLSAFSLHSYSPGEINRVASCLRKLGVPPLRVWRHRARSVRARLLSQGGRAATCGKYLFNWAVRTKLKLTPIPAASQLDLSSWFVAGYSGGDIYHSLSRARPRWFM
# test-method-notes: HCV NS5B RdRp enzyme assay (preincubation protocol)
# Type: biochemical
# particulars: Table 1a, read-out: IC50*
pIC50: −log10 of the molar value.
reported-metric: pIC50

Each molecule below has a recorded value; state its pIC50.
1. COC(=O)CCC(=O)CNC(=O)C1=Cc2cc(OC)ccc2-c2c(C3CCCCC3)c3ccc(C(=O)OC)cc3n2C1
2. C[C@@H]1CN(C(=O)C2=Cc3cc(F)ccc3-c3c(C4CCCCC4)c4ccc(C(=O)O)cc4n3C2)C[C@H](C)N1C
3. COc1ccc2c(c1)C=C(C(=O)N1CCC[C@@H](OC(C)=O)C1)Cn1c-2c(C2CCCCC2)c2ccc(C(=O)NS(=O)(=O)N(C)C)cc21
4. COC(=O)c1ccc2c(C3CCCCC3)c3n(c2c1)CC(C(=O)NCC1CCCO1)Cc1cc(OC)ccc1-3 (centres unmarked)

1: 6.00 to 8.00; 2: 6.00 to 8.00; 3: 6.00 to 8.00; 4: < 6.00

Each molecule below has a recorded value; state its pIC50.
1. COc1ccc2c(c1)CC(NC(=O)N1CCOC(CNC(C)=O)C1)Cn1c-2c(C2CCCCC2)c2ccc(C(=O)NS(=O)(=O)N(C)C)cc21 (centres unmarked)
2. COc1ccc2c(c1)C=C(C(=O)N1CCC(O)(c3cccnc3)CC1)Cn1c-2c(C2CCCCC2)c2ccc(C(=O)NS(=O)(=O)N(C)C)cc21
3. COc1ccc2c(c1)CC(NC(=O)N1CCN(C(C)=O)CC1)Cn1c-2c(C2CCCCC2)c2ccc(C(=O)NS(=O)(=O)N(C)C)cc21 (centres unmarked)
4. COc1ccc2c(c1)CC(N(C)C(=O)N1C[C@@H](C)O[C@@H](C)C1)Cn1c-2c(C2CCCCC2)c2ccc(C(=O)NS(=O)(=O)N(C)C)cc21 (some centres unmarked)
5. COc1ccc2c(c1)CC(NC(=O)N1CCC(N3CCCC3)CC1)Cn1c-2c(C2CCCCC2)c2ccc(C(=O)NS(=O)(=O)N(C)C)cc21 (centres unmarked)
6. COc1ccc2c(c1)C=C(C(=O)N1CCOC(CNC(C)=O)C1)Cn1c-2c(C2CCCCC2)c2ccc(C(=O)NS(=O)(=O)N(C)C)cc21 (centres unmarked)
7. COC(=O)c1ccc2c(C3CCCCC3)c3n(c2c1)CC(C(=O)NCc1ncco1)Cc1cc(OC)ccc1-3 (centres unmarked)
8. COc1ccc2c(c1)C=C(C(=O)N1CCN(c3ccccc3OC)CC1)Cn1c-2c(C2CCCCC2)c2ccc(C(=O)NS(=O)(=O)N(C)C)cc21

1. > 7.70
2. 6.00 to 8.00
3. 6.00 to 8.00
4. 6.00 to 8.00
5. 6.00 to 8.00
6. > 7.70
7. 6.00 to 8.00
8. 6.00 to 8.00

Each molecule below has a recorded value; state its pIC50.
1. O=C(NCc1nc2ccccc2[nH]1)c1ccc2c(C3CCCCC3)c3n(c2c1)CC(C(=O)N1CCC(N2CCOCC2)CC1)=Cc1ccccc1-3
2. COc1ccc2c(c1)CC(NC(=O)N1C[C@@H]3C[C@H]1CO3)Cn1c-2c(C2CCCCC2)c2ccc(C(=O)NS(=O)(=O)N(C)C)cc21 (some centres unmarked)

1: 6.00 to 8.00; 2: 6.00 to 8.00
